Recorded pKi for the following binders
# Measurement target: pKal catalytic domain Mutant 4 (human, UniProt P03952 391-638)
# Sequence (P03952 other isoform, or with tags, fused parts or gaps mutant): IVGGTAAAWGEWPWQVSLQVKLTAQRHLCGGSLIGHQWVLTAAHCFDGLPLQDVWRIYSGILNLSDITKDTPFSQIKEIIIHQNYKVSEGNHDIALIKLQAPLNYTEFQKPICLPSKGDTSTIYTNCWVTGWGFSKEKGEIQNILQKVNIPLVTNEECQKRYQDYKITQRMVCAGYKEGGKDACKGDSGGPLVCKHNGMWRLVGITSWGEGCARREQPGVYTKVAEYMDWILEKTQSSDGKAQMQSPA
# Procedure summary: Ki,app, enzyme inhibition
pKi here is simply -log10 of the concentration when that concentration is written in mol/L.

Observe how each entry below is paired with its result.
>  <Binder>
X115-A03 (antibody, V domains shown, also called 559A-X115-A03; 559A-X0115-A03) VH: EVQLLESGGGLVQPGGSLRLSCAASGFTFSHYIMMWVRQAPGKGLEWVSGIYSSGGITVYADSVKGRFTISRDNSKNTLYLQMNSLRAEDTAVYYCAWRRIGVPRRDSFDMWGQGTMVTVSS VL: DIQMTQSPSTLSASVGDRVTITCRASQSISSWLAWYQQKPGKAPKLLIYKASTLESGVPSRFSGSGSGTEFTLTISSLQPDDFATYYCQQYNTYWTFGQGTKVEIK

>  <Assay result>
9.89

$$$$
>  <Binder>
X115-F02 (Fab, V domains shown, also called 559A-X115-F02; 559A-X0115-F02) VH: EVQLLESGGGLVQPGGSLRLSCAASGFTFSHYIMMWVRQAPGKGLEWVSGIYSSGGITVYADSVKGRFTISRDNSKNTLYLQMNSLRAEDTAVYYCAYRRIGVPRRDEFDIWGQGTMVTVSS VL: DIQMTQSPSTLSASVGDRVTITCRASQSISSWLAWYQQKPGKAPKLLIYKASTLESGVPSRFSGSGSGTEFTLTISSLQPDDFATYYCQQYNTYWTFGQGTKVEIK

>  <Assay result>
10.00

$$$$

Now for a further binder.
Output measured pKi for this item: M29-D09 (Fab, V domains shown, also called 559A-M29-D09 (sFab); 559A-M0029-D09) VH: EVQLLESGGGLVQPGGSLRLSCAASGFTFSWYTMVWVRQAPGKGLEWVSYIYPSGGATFYADSVKGRFTISRDNSKNTLYLQMNSLRAEDTAVYYCAMGSYDYIWGFYSDHWGQGTLVTVSS VL: QSALTQPPTVSVSPGQTARITCSGNKLGDKYVAWYQQKPGQSPMLVIYQDTKRPSRVSERFSGSNSANTATLSISGTQALDEADYYCQAWDSSIVIFGGGTRLTVL
9.41
